Molecular target: human HIF-PHD2 (Homo sapiens, UniProt Q9GZT9)
Sequence (Q9GZT9 2-426 limits assumed): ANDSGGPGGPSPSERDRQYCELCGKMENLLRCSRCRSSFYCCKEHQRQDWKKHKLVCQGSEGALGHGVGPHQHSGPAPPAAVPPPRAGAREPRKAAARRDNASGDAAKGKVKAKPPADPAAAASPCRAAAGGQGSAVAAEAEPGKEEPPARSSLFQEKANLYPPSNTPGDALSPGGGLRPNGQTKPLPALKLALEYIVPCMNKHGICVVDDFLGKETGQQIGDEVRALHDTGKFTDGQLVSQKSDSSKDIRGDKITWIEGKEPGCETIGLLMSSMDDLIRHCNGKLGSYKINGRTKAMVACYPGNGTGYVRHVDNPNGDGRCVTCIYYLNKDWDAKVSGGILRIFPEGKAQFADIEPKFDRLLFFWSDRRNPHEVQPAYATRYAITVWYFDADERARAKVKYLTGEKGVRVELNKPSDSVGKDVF
experimental_readout: IC50 (nM)

Examples with their reported IC50 follow.
molecule="O=C(O)c1cnn(-c2nc(O)c3c(n2)c(F)nn3C2CCCCC2)c1 [Example 478]" study_target="human HIF-PHD2 (Homo sapiens, UniProt Q9GZT9)" endpoint_value=45
molecule="COc1cc(-c2ccccc2F)ccc1Cn1ncc2nc(-n3cc(C(=O)O)cn3)nc(O)c21 [Example 90]" study_target="human HIF-PHD2 (Homo sapiens, UniProt Q9GZT9)" endpoint_value=20
molecule="CCC(c1ccc(C(F)(F)F)cc1)n1ncc2nc(-n3cc(C(=O)O)cn3)nc(O)c21 (centres unmarked) [Example 326]" study_target="human HIF-PHD2 (Homo sapiens, UniProt Q9GZT9)" endpoint_value=53
molecule="CC(C)C(c1ccc(F)c(F)c1)n1ncc2nc(-n3cc(C(=O)O)cn3)nc(O)c21 (centres unmarked) [Example 358]" study_target="human HIF-PHD2 (Homo sapiens, UniProt Q9GZT9)" endpoint_value=45
molecule="C[C@H](c1ccc(-c2ccccc2)cc1)n1ncc2nc(-n3cc(C(=O)O)cn3)nc(O)c21 [Example 109]" study_target="human HIF-PHD2 (Homo sapiens, UniProt Q9GZT9)" endpoint_value=24
molecule="O=C(O)c1cnn(-c2nc(O)c3c(cnn3Cc3cccc(C(F)(F)F)c3)n2)c1 [Example 9]" study_target="human HIF-PHD2 (Homo sapiens, UniProt Q9GZT9)" endpoint_value=33
molecule="O=C(O)c1cnn(-c2nc(O)c3c(cnn3CC3(COc4ccc5c(c4)CCCC5)CC3)n2)c1 [Example 199]" study_target="human HIF-PHD2 (Homo sapiens, UniProt Q9GZT9)" endpoint_value=130
molecule="C[C@@H](c1cc(F)ccc1F)n1nc(C2CC2)c2nc(-n3cc(C(=O)O)cn3)nc(O)c21 [Example 461]" study_target="human HIF-PHD2 (Homo sapiens, UniProt Q9GZT9)" endpoint_value=230

a = CCCC(CCC)Cn1ncc2nc(-n3cc(C(=O)O)cn3)nc(O)c21 [Example 495]
b = CC1(C)CCCC(n2ncc3nc(-n4cc(C(=O)O)cn4)nc(O)c32)C1 (centres unmarked) [Example 411]
Exam item: Of the two listed items, a and b , which carries the larger IC50 figure? Pick one; state its label.
Marked response: a

1 = O=C(O)c1cnn(-c2nc(O)c3c(cnn3Cc3cc(F)cc(C(F)(F)F)c3)n2)c1 [Example 8]
2 = CC(c1cc(Cl)c(Cl)s1)n1ncc2nc(-n3cc(C(=O)O)cn3)nc(O)c21 (centres unmarked) [Example 319]
3 = O=C(O)c1cnn(-c2nc(O)c3c(cnn3Cc3ccc(-c4ccc(C(F)(F)F)cc4)cc3)n2)c1 [Example 67]
4 = O=C(O)c1cnn(-c2nc(O)c3c(cnn3CCCOc3ccc(C(F)(F)F)cc3Cl)n2)c1 [Example 176]
Exam item: # rank by IC50, ascending (min first) Your answer should be the labels, listed in the requested order.
Marked response: 3, 4, 1, 2
(3: 10 nM, 4: 19 nM, 1: 48 nM, 2: 85 nM)

P = CC(c1ccc(N2CCC(F)CC2)cc1)n1ncc2nc(-n3cc(C(=O)O)cn3)nc(O)c21 (racemic) [Example 424]
Q = O=C(O)c1cnn(-c2nc(O)c3c(cnn3Cc3cccc(-c4ccc(F)cc4)c3)n2)c1 [Example 40]
Exam item: Please choose the item with the lower IC50 value from this pair: P and Q Pick one; state its label.
Marked response: Q
(Q: 11 nM, P: 44 nM)

P = CC(C)(C)c1cccc(OCCCn2ncc3nc(-n4cc(C(=O)O)cn4)nc(O)c32)c1 [Example 179]
Q = Cc1ccc(C(C)n2ncc3nc(-n4cc(C(=O)O)cn4)nc(O)c32)cc1Cl (centres unmarked) [Example 297]
Exam item: Of the two listed items, P and Q , which carries the larger IC50 figure? Pick one; state its label.
Marked response: Q
(Q: 66 nM, P: 45 nM)

P = O=C(O)c1cnn(-c2nc(O)c3c(cnn3CCCOc3cc(C(F)(F)F)cc(C(F)(F)F)c3)n2)c1 [Example 183]
Q = O=C(O)c1cnn(-c2nc(O)c3c(cnn3[C@H]3CCN(c4ccc(C(F)(F)F)cc4)C3)n2)c1 [Example 437]
Exam item: Please choose the item with the lower IC50 value from this pair: P and Q Pick one; state its label.
Marked response: Q
(Q: 2.5 nM, P: 63 nM)

1 = CC1CC(n2ncc3nc(-n4cc(C(=O)O)cn4)nc(O)c32)CC(C)(C)C1 (centres unmarked) [Example 409]
2 = O=C(O)c1cnn(-c2nc(O)c3c(cnn3Cc3cc(F)c(-c4ccccc4F)cc3F)n2)c1 [Example 100]
3 = O=C(O)c1cnn(-c2nc(O)c3c(cnn3CCCCCc3ccccc3)n2)c1 [Example 166]
Exam item: Sort these molecules on IC50 so the largest reading comes first. Your answer should be the labels, listed in the requested order.
Marked response: 1, 3, 2

P = C[C@@H](c1ccc(OC(F)(F)F)c(F)c1)n1ncc2nc(-n3cc(C(=O)O)cn3)nc(O)c21 [Example 317]
Q = CC(C)(Cn1ncc2nc(-n3cc(C(=O)O)cn3)nc(O)c21)c1ccc(Cl)cc1 [Example 120]
Exam item: Of the two listed items, P and Q , which carries the larger IC50 figure? Pick one; state its label.
Marked response: Q
(Q: 54 nM, P: 19 nM)

A = O=C(O)c1cnn(-c2nc(O)c3c(cnn3CCCCOc3ccc(F)cc3)n2)c1 [Example 215]
B = COc1cccc(OCCCn2ncc3nc(-n4cc(C(=O)O)cn4)nc(O)c32)c1 [Example 186]
C = Cc1ncccc1-c1ccc(Cn2ncc3nc(-n4cc(C(=O)O)cn4)nc(O)c32)cc1F [Example 106]
Exam item: # rank by IC50, ascending (min first) Your answer should be the labels, listed in the requested order.
Marked response: C, A, B

----------
Heads up, these compounds all have pIC50 values measured for UniProt Q9H6Z9.
pIC50: −log10 of the molar value.
experimental_readout: pIC50

Examples with their reported pIC50 follow.
compound="O=C(O)c1cnn(-c2nc(O)c3c(cnn3C(c3ccc(F)cc3)C3CC3)n2)c1 (single isomer, unassigned)" experimental_readout=pIC50 endpoint_value=6.46
compound=O=C(O)c1cnn(-c2nc(O)c3c(n2)c(F)nn3CC2CCCCCC2)c1 experimental_readout=pIC50 endpoint_value=6.36
compound=O=C(O)c1cnn(-c2nc(O)c3c(cnn3[C@@H]3CCc4ccccc43)n2)c1 experimental_readout=pIC50 endpoint_value=6.47
compound="Cc1cc(C(C)n2ncc3nc(-n4cc(C(=O)O)cn4)nc(O)c32)ccc1F (centres unmarked) [Example 301]" experimental_readout=pIC50 endpoint_value=6.15
compound=CC[C@H]1CC[C@H](n2ncc3nc(-n4cc(C(=O)O)cn4)nc(O)c32)CC1 experimental_readout=pIC50 endpoint_value=6.29

P = O=C(O)c1cnn(-c2nc(O)c3c(cnn3C[C@H]3CC[C@H](Oc4ccccc4F)CC3)n2)c1
Q = Cc1nn([C@@H](C)c2ccc3ccccc3c2)c2c(O)nc(-n3cc(C(=O)O)cn3)nc12
R = Cc1cccc(-c2ccc(Cn3ncc4nc(-n5cc(C(=O)O)cn5)nc(O)c43)cc2)c1
Exam item: Sort these compounds on pIC50 so the largest reading comes first. Your answer should be the labels, listed in the requested order.
Marked response: R, P, Q
(R: 7.18, P: 6.52, Q: 6.14)

----------
Heads up, these compounds all have pIC50 values measured for human HIF-PHD3 (Homo sapiens, UniProt Q9H6Z9).
pIC50: −log10 of the molar value.
experimental_readout: pIC50

compound="Cc1cc(C(C2CC2)n2ncc3nc(-n4cc(C(=O)O)cn4)nc(O)c32)ccc1F (single isomer, unassigned) [Example 377]" endpoint_value=6.47
compound="Cc1cc(C)cc(C(C)n2ncc3nc(-n4cc(C(=O)O)cn4)nc(O)c32)c1 (single isomer, unassigned) [Example 310]" endpoint_value=6.33
compound=CC(C)C(C(C)C)n1ncc2nc(-n3cc(C(=O)O)cn3)nc(O)c21 endpoint_value=6.05

P = O=C(O)c1cnn(-c2nc(O)c3c(cnn3Cc3cccc(-c4ccccc4)c3)n2)c1
Q = Cc1cc(-c2ccccc2F)ccc1Cn1ncc2nc(-n3cc(C(=O)O)cn3)nc(O)c21
Exam item: Of the two listed items, P and Q , which carries the larger pIC50 figure? Pick one; state its label.
Marked response: Q

P = Cc1nn(Cc2ccc(C(F)(F)F)cc2)c2c(O)nc(-n3cc(C(=O)O)cn3)nc12
Q = O=C(O)c1cnn(-c2nc(O)c3nn(Cc4cc(C(F)(F)F)cc(Cl)c4F)cc3n2)c1
Exam item: Of the two listed items, P and Q , which carries the larger pIC50 figure? Pick one; state its label.
Marked response: P

----------
Molecular target: human HIF-PHD3 (Homo sapiens)
Sequence (Q9H6Z9 whole entry): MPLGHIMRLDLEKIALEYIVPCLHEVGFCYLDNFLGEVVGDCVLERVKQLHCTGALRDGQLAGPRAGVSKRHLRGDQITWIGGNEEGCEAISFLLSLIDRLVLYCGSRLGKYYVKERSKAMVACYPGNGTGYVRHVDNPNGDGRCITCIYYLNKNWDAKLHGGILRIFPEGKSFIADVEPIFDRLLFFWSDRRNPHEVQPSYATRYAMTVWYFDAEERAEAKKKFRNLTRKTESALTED
experimental_readout: IC50 (nM)

Examples with their reported IC50 follow.
compound=O=C(O)c1cnn(-c2nc(O)c3c(cnn3CCCOc3cccc(C(F)(F)F)c3)n2)c1 endpoint_value=570
compound=O=C(O)c1cnn(-c2nc(O)c3c(n2)c(F)nn3CC2CCC3(CCC3)CC2)c1 endpoint_value=270
compound="CCC(c1ccc(F)c(F)c1)n1ncc2nc(-n3cc(C(=O)O)cn3)nc(O)c21 (single isomer, unassigned) [Example 331]" endpoint_value=420
compound=O=C(O)c1cnn(-c2nc(O)c3c(cnn3Cc3c(F)cc(-c4ccccc4)cc3F)n2)c1 endpoint_value=200
compound=CCc1ccccc1-c1ccc(Cn2ncc3nc(-n4cc(C(=O)O)cn4)nc(O)c32)cc1 endpoint_value=65

I = Cc1cc(F)cc(C(C)n2ncc3nc(-n4cc(C(=O)O)cn4)nc(O)c32)c1 (single isomer, unassigned)
II = O=C(O)c1cnn(-c2nc(O)c3c(n2)c(Cl)nn3Cc2ccc(Br)cc2)c1
Exam item: Of the two listed items, I and II , which carries the larger IC50 figure? Pick one; state its label.
Marked response: I
(I: 490 nM, II: 340 nM)

Attribution: patent US20150239889A1
